Target: T1, rhHGF R/Fc Chimera (R&D Systems; Cat.358MT/CF) (human, UniProt P08581 25-932)
T1 construct: Bought reagent; Fc part of the bought chimera not given; not described
T1 sequence (P08581 25-932, change not shown): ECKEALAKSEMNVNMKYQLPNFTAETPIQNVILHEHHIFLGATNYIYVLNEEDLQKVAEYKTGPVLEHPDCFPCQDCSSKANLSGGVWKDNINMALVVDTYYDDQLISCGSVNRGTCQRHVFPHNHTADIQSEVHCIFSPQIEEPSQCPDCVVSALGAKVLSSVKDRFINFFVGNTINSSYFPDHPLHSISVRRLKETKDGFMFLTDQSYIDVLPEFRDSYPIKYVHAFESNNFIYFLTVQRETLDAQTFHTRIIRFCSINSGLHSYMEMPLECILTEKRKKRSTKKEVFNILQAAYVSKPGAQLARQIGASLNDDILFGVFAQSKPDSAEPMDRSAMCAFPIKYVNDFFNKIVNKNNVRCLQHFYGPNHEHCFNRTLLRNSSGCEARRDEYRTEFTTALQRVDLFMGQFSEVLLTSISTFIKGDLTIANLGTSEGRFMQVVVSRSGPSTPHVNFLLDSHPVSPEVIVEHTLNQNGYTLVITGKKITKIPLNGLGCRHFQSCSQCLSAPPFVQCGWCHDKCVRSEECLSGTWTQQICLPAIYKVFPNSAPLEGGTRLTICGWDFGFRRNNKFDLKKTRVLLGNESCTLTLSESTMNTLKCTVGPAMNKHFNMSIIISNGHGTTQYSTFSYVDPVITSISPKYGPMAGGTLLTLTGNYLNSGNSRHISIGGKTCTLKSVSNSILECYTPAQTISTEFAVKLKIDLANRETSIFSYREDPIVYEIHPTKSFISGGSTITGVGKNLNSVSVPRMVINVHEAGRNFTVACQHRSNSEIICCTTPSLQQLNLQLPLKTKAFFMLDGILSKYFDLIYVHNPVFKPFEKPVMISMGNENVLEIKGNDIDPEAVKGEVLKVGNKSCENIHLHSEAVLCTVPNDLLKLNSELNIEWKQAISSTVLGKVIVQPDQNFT
Assay: ELISA on coated rhHGF R/Fc Chimera
test_readout: EC50
Answer format reminder: number followed by unit.

Return reported EC50. Input binder: IgG1-1016-069-Hinge IgG3 (antibody, V domains shown, also called IgG1 Hinge-IgG3 variant of 069) VH: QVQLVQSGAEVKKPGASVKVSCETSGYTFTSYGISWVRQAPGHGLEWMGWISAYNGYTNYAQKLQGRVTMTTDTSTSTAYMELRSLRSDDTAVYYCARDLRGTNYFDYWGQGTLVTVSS VL: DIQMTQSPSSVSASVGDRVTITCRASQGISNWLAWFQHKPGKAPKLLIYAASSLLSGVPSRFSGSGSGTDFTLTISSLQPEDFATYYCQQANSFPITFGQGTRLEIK
0.0142 µg/mL
